Listed here are molecules together with their documented TRPA1 Direct addition.
SYSTEM_UNDER_TEST: TRPA1 receptor (Homo sapiens)
Construct: expressed in transfected cells; host or cells: HEK cell line
METHOD_NOTES: cell-based
ASSAY_CONDITIONS: percentage of the control (allyl isothiocyanate) calcium count; material dissolved in DMSO at 100 micromolar; HEK cells with TRPA1; direct addition
Give the quantity in %, number only.

{"MOLECULE": "CC(=O)O[C@@H]1C[C@H](C)CC[C@H]1C(C)C [Laevo Menthyl Acetate]", "TRPA1 Direct addition [%]": "−9.39"}
{"MOLECULE": "C/C=C\\C(=O)C1C(C)=CCCC1(C)C (stereo not drawn)", "TRPA1 Direct addition [%]": "−2.88"}
{"MOLECULE": "CC(=O)C1(C)CC2=C(CCCC2(C)C)CC1C (stereo not drawn)", "TRPA1 Direct addition [%]": 11.53}
{"MOLECULE": "[Cl][Sn][Cl] [Stannous Chloride]", "TRPA1 Direct addition [%]": "−14.1"}
{"MOLECULE": "O=C(O)C(O)C(O)C(=O)O (stereo not drawn)", "TRPA1 Direct addition [%]": "−2.77"}

Then this molecule:
Name the recorded TRPA1 Direct addition for CC1C2CC(CC2C2CCCC(O)C2)C1(C)C (stereo not drawn) . 25.65

----------
SYSTEM_UNDER_TEST: TRPA1 receptor (Homo sapiens, UniProt O75762);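 as to TRPA1 Pre-incubation: values above 100 mean more active than the control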
Construct: expressed in transfected cells; host or cells: HEK cell line
Sequence (O75762 whole entry): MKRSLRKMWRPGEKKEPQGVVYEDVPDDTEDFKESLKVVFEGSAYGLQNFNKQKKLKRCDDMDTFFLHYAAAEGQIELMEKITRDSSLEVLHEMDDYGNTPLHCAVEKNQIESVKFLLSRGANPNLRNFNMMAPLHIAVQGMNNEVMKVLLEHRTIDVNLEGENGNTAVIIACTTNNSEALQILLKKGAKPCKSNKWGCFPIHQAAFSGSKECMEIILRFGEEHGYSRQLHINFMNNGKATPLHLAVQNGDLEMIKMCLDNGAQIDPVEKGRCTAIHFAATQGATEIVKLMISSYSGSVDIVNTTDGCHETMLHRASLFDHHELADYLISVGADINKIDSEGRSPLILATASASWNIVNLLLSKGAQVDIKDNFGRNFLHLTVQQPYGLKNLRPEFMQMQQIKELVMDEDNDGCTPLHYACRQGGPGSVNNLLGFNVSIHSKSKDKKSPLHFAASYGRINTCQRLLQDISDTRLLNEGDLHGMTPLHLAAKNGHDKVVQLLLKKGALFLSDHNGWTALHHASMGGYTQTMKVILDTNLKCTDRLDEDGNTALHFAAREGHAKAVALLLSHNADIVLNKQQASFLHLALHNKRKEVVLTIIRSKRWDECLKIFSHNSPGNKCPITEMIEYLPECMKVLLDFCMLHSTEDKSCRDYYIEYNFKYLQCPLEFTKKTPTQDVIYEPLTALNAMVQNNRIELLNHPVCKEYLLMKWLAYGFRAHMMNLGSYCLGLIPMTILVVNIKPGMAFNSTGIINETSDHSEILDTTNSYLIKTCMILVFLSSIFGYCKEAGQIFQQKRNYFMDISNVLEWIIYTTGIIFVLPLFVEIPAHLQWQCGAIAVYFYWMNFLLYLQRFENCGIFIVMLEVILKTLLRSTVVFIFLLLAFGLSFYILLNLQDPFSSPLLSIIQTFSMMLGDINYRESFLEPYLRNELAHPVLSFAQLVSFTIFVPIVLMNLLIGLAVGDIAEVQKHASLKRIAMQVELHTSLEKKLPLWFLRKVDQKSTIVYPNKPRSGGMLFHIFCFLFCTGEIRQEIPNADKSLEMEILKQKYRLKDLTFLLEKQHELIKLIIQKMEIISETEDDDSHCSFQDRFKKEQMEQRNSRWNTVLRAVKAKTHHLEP
Format: cell-based
ASSAY_CONDITIONS: percentage of the control (allyl isothiocyanate) calcium count, material dissolved in DMSO at 100 micromolar, HEK cells with TRPA1
In plain terms, low TRPA1 Pre-incubation, meaning strictly below 70%, gives Yes, and everything else gives No.

{"MOLECULE": "C=C(C)CCCC(C)CCOC(C)=O (centres unmarked) [Rhodinyl Acetate]", "CATEGORY_LABEL": "Yes"}
{"MOLECULE": "C=C(C)[C@@H]1CCC2=CCC[C@@H](C)[C@]2(C)C1", "CATEGORY_LABEL": "No"}

I'd appreciate it if you could check whether CC(=O)OC1C2(C)CCC(C2)C1(C)C (centres unmarked) [Fenchyl Acetate] has TRPA1 Pre-incubation smaller than 70%. Yes

----------
SYSTEM_UNDER_TEST: TRPA1 receptor (Homo sapiens);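 as to TRPA1 Pre-incubation: values above 100 mean more active than the control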
Construct: expressed in transfected cells; host or cells: HEK cell line
Type: cell-based
ASSAY_CONDITIONS: percentage of the control (allyl isothiocyanate) calcium count, material dissolved in DMSO at 100 micromolar, HEK cells with TRPA1
Friendly reminder: TRPA1 Pre-incubation below 60% is Condition met, at or above is Condition not met.

Worked examples follow.
{"COMPOUND": "CC(=O)CCC1C(C)=CCCC1(C)C (stereo not drawn) [Dihydro-alpha-ionone]", "CATEGORY_LABEL": "Condition not met"}
{"COMPOUND": "CC(=O)OCCCc1ccccc1 [Phenyl Propyl Acetate]", "CATEGORY_LABEL": "Condition not met"}
{"COMPOUND": "[Cl-].[Cl-].[Zn+2] [Zinc Chloride]", "CATEGORY_LABEL": "Condition met"}
{"COMPOUND": "CC(=O)/C=C/C1=C(C)CCCC1(C)C", "CATEGORY_LABEL": "Condition not met"}
{"COMPOUND": "CCOC(=O)/C=C/c1ccccc1 [Ethyl Cinnemate]", "CATEGORY_LABEL": "Condition not met"}
{"COMPOUND": "C/C=C/c1ccc(OC(=O)Cc2ccccc2)c(OC)c1 [Iso-eugenyl phenylacetate]", "CATEGORY_LABEL": "Condition met"}
{"COMPOUND": "C=C(C)C1CC=C(C)C(OC(=O)CC)C1 (stereo not drawn) [Carvyl Propionate]", "CATEGORY_LABEL": "Condition not met"}
{"COMPOUND": "CC1=C(/C=C/C(C)O)C(C)(C)CCC1 (stereo not drawn)", "CATEGORY_LABEL": "Condition not met"}

Regarding CC(=O)O[C@@H]1C[C@H](C)CC[C@H]1C(C)C (racemic) [DL-Menthyl Acetate] , kindly confirm whether its TRPA1 Pre-incubation is beneath 60%. Condition met

Bench note: check whether CCOc1cc(C2OCC(C)O2)ccc1O (stereo not drawn) shows TRPA1 Pre-incubation below 60% Condition not met

Does the reported TRPA1 Pre-incubation of C=CC(C)(O)CCC=C(C)CC (mixture of isomers) stay below 60%? Condition not met
